Listing of recorded IC50 by entry.
Target of assay: rat mGlu 5a receptor (Rattus norvegicus)
Sequence (P31424 21-1171 isoform P31424-2 limits assumed): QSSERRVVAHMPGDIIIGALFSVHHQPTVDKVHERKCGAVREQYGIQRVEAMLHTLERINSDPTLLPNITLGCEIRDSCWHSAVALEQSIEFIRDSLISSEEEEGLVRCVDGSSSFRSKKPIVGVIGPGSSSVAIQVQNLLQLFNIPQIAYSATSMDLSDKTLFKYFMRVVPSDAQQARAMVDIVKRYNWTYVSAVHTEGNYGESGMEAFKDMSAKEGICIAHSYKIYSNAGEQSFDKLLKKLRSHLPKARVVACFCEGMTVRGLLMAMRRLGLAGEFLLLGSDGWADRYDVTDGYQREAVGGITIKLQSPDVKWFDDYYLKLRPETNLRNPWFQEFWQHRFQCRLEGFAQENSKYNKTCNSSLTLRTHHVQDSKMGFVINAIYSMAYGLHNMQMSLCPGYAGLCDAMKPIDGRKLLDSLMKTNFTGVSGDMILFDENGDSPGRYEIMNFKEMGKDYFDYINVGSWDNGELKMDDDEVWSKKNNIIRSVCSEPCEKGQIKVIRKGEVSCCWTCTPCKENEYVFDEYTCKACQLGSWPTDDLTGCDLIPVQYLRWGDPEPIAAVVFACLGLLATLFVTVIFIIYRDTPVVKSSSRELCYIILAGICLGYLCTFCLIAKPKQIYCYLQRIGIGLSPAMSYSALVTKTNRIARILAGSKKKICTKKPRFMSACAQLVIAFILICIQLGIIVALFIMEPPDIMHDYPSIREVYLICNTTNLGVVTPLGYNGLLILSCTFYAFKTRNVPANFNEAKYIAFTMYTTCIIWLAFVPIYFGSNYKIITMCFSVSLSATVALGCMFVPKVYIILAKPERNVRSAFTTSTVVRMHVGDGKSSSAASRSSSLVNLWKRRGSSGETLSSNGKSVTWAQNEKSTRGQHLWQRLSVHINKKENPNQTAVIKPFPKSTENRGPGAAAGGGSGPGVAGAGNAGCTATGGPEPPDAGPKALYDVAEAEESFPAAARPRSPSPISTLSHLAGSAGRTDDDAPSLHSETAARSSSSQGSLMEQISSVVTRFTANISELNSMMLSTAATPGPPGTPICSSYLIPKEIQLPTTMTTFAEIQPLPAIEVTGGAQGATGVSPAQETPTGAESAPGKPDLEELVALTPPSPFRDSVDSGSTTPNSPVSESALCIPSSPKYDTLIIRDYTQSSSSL
Measurement protocol: [Ca2+]i FLIPR antagonist assay on mGlu 5a transfected EBNA cells against 10 μM glutamate
Condition context: rat mGlu 5a transiently transfected EBNA cells; against 10 μM glutamate as agonist
Give the value in µM but do not write µM after it.

The cases that follow already have their IC50 on record.
[[record]]
compound = "COc1ccc(-c2cn3ccccc3n2)cc1OC"
value_unit = "µM"
value_observed = 6.8

[[record]]
compound = "Cc1ccc(-c2cn3ccc(Cl)cc3n2)cc1C"
value_unit = "µM"
value_observed = 0.1

[[record]]
compound = "FC(F)(F)c1cccc(-c2cn3ccccc3n2)c1"
value_unit = "µM"
value_observed = 2.79

[[record]]
compound = "Cc1ccn2cc(-c3ccc(C)c(C)c3)nc2c1"
value_unit = "µM"
value_observed = 0.28

[[record]]
compound = "c1ccc2c(-c3cn4ccccc4n3)csc2c1"
value_unit = "µM"
value_observed = 2.76


QUERY: So what does the record say about IC50 for Cc1ccc(-c2cn3ccccc3n2)cc1C.Cl [Example 6, hydrochloride] ?
RESULT: 0.037

QUERY: One more compound: Fc1ccc(-c2cn3ccccc3n2)cc1Br
RESULT: 0.69

QUERY: And Fc1cccc(-c2cn3ccccc3n2)c1 ?
RESULT: 3.41

###

Target of assay: UniProtKB P31424
Measurement protocol: [Ca2+]i FLIPR antagonist assay on mGlu 5a transfected EBNA cells against 10 μM glutamate
Condition context: rat mGlu 5a transiently transfected EBNA cells; against 10 μM glutamate as agonist
Measurement name: IC50
Answer with the number, then the unit.

Known IC50 results, listed for orientation:
[[record]]
compound = "Cc1ccc(-c2cn3ccccc3n2)s1 [Example 21]"
value_observed = "6130 nM"

[[record]]
compound = "Cc1cccc(-c2cn3ccccc3n2)c1 [Example 14]"
value_observed = "1550 nM"


Now, please, on to the next compound.
QUERY: Quick check: IC50 of c1ccn2cc(-c3ccc4c(c3)OCCO4)nc2c1 [Example 27] ?
RESULT: 990 nM
